assayed-target: BRAF G466V (Homo sapiens, UniProt P15056, G466V)
Construct: Horizon Discovery (HCT-116 BRAF−/− cells); host or cells: HCT-116 BRAF−/− cells, clone 8, lentiviral transduction
Sequence (P15056 whole entry G466V): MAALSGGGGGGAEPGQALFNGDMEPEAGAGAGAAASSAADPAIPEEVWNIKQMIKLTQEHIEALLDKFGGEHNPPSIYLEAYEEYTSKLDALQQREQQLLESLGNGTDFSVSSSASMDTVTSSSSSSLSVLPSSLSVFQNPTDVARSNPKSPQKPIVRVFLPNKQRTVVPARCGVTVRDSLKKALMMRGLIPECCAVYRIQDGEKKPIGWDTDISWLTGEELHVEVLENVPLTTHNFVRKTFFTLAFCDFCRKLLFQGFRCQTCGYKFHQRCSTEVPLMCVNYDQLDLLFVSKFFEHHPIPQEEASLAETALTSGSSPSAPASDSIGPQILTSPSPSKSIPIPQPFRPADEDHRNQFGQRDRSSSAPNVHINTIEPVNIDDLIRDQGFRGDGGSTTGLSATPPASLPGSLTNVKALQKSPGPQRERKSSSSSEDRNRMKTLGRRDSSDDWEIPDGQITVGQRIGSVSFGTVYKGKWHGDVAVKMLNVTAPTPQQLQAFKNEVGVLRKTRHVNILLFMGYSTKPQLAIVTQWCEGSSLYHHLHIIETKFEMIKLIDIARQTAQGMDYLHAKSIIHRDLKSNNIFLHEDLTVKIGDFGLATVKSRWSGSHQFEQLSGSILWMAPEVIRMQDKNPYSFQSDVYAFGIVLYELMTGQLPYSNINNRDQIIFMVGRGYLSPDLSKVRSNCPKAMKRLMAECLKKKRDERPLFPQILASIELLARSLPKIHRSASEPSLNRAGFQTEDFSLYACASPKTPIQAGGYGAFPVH
test-description: BRAF HiBiT degradation assay, C-terminal HiBiT-tagged BRAF G466V overexpressed in HCT-116 BRAF−/− cells (clone 8), Nano-Glo HiBiT Lytic assay
Type: cell-based
particulars: HCT-116; BRAF G466V; percentage protein degraded at maximal compound effect relative to DMSO
quantity-measured: Dmax

Recorded Dmax, per entry:
[[record]]
molecule = "CCCS(=O)(=O)Nc1cccc(-c2nc(C3CCN(C(=O)C4(C)CCN(C(=O)CC5CCN(c6ccc(C7CCC(=O)NC7=O)cn6)CC5)CC4)CC3)sc2-c2ccnc(N)n2)c1F (racemic)"
quantity_measured = "Dmax"
observed_result = "30 to 70%"

[[record]]
molecule = "CCCS(=O)(=O)Nc1cccc(-c2nc(C(C)(C)C)sc2-c2ccnc(Nc3ccc(C4CCN(CC5CCN(c6ccc(C7CCC(=O)NC7=O)cc6)CC5)CC4)cc3)n2)c1F (racemic)"
quantity_measured = "Dmax"
observed_result = "30 to 70%"


Field request: Dmax | item: `CCCS(=O)(=O)Nc1cccc(-c2nc(C(C)(C)C)sc2-c2ccnc(Nc3ccc(N4CCN(CC5CCN(c6ccc([C@H]7CCC(=O)NC7=O)cc6)CC5)CC4)c(F)c3)n2)c1F`
30 to 70%

* * *

assayed-target: BRAF D594G (Homo sapiens, UniProt P15056, D594G)
Construct: Horizon Discovery (HCT-116 BRAF−/− cells); host or cells: HCT-116 BRAF−/− cells, clone 63, lentiviral transduction
Sequence (P15056 whole entry D594G): as the sequence (P15056 whole entry G466V) above, with V466G, D594G counted along it
test-description: BRAF HiBiT degradation assay, C-terminal HiBiT-tagged BRAF D594G overexpressed in HCT-116 BRAF−/− cells (clone 63), Nano-Glo HiBiT Lytic assay
Assay type: cell-based
particulars: BRAF D594G (Class 3), HCT-116 BRAF−/− cells; DC50 at 50% degradation
The entries below are paired with their reported DC50.

Recorded DC50, per entry:
[[record]]
compound = "C[C@@H]1CN(c2ccc(-n3cc(-c4cc(Cl)cc(NS(=O)(=O)N5CC[C@@H](F)C5)c4F)c(-c4ccncc4)n3)nc2)CCN1CC1CCN(c2ccc(N3CCC(=O)NC3=O)cc2)CC1"
quantity_measured = "DC50"
observed_result = "< 10 nM"

[[record]]
compound = "O=C1CC[C@H](c2ccc(N3CCC(CN4CCCN(c5ccc(-n6cc(-c7cc(Cl)cc(NS(=O)(=O)N8CCCC8)c7F)c(-c7ccncc7)n6)c(F)c5)CC4)CC3)cc2)C(=O)N1"
quantity_measured = "DC50"
observed_result = "> 500 nM"

[[record]]
compound = "O=C1CCN(c2ccc(N3CCC(CN4CCN(c5ccc(-n6cc(-c7cc(Cl)cc(NS(=O)(=O)N8CCCC8)c7F)c(-c7ccncc7)n6)cc5F)CC4)CC3)cc2)C(=O)N1"
quantity_measured = "DC50"
observed_result = "< 10 nM"

[[record]]
compound = "O=C1CC[C@H](c2ccc(N3CCC(CN4CCN(c5cc(F)c(-n6cc(-c7cc(Cl)cc(NS(=O)(=O)N8CCCC8)c7F)c(-c7ccncc7)n6)cc5F)CC4)CC3)cc2)C(=O)N1"
quantity_measured = "DC50"
observed_result = "< 10 nM"

[[record]]
compound = "O=C1CC[C@H](c2ccc(N3CCC(CN4CCN(c5ccc(-n6cc(-c7cc(F)cc(NS(=O)(=O)N8CCCC8)c7F)c(-c7ccncc7)n6)cc5)CC4)CC3)cc2)C(=O)N1"
quantity_measured = "DC50"
observed_result = "< 10 nM"

[[record]]
compound = "C[C@@H]1CN(c2ccc(-n3cc(-c4cc(Cl)cc(NS(=O)(=O)N5CCCC5)c4F)c(-c4ccncc4)n3)cc2)CCN1CC1CCN(c2ccc(C3CCC(=O)NC3=O)cn2)CC1 (mixture of isomers)"
quantity_measured = "DC50"
observed_result = "< 10 nM"

[[record]]
compound = "C[C@@H]1CN(c2ccc(-n3cc(-c4cc(Cl)cc(NS(=O)(=O)N5CCCC5)c4F)c(-c4ccncc4)n3)nc2)CCN1CC1CCN(c2ccc(C3CCC(=O)NC3=O)cn2)CC1 (mixture of isomers)"
quantity_measured = "DC50"
observed_result = "< 10 nM"

[[record]]
compound = "O=C1CCN(c2ccc(N3CCC(CN4CCN(c5cnc(-n6cc(-c7cc(Cl)cc(NS(=O)(=O)N8CCCC8)c7F)c(-c7ccncc7)n6)nc5)CC4)CC3)cc2)C(=O)N1"
quantity_measured = "DC50"
observed_result = "< 10 nM"


Field request: DC50 | item: O=C1CCC(c2ccc(N3CCC(CN4CCN(c5ccc(-n6cc(-c7cc(Cl)cc(NS(=O)(=O)N8CC(F)C8)c7F)c(-c7ccncc7)n6)c(F)c5)CC4)CC3)nc2)C(=O)N1 (racemic)
< 10 nM

Field request: DC50 | item: `CCCS(=O)(=O)Nc1cccc(-c2cn(-c3ccc(N4CCN(CC5CCN(c6ccc([C@H]7CCC(=O)NC7=O)cc6)CC5)[C@H](C)C4)cc3)nc2-c2ccncc2)c1F`
> 500 nM
